For each entry below, report its MIC value.
Tested on: C. difficile clinical isolates
Experiment summary: MIC against a panel of 20 C. difficile clinical isolates (broth microdilution)
Type: cell-based, Clostridioides difficile
Study conditions: Clostridioides difficile, ATCC630, C. difficile ATCC 630; read-out: minimum inhibitory concentration (MIC)
Numbers only, in µg/mL.

- Chemical smiles: "Oc1c(Br)cc(Br)c2cccnc12"
  MIC [µg/mL]: 1

Next item in the queue.
MIC lookup needed for COC(=O)N/N=C/c1c[n+]([O-])c2ccccc2[n+]1[O-] , thanks. 1

* * *

Give MIC for every item shown.
Test system: C. difficile clinical isolates
Experiment summary: MIC against a panel of 20 C. difficile clinical isolates (broth microdilution)
Format: cell-based, Clostridioides difficile
Study conditions: Clostridioides difficile, C. difficile NR-49304; read-out: minimum inhibitory concentration (MIC)
Structures can show the parent of a compound that is named as a salt.
Answers are plain numbers, in µg/mL.

Answered cases to consult:
- Compound: "Oc1c(Br)cc(Br)c2cccnc12"
  Unit tag: "µg/mL"
  Measured result: 0.03
- Compound: "Cc1ccc2c(Cl)cc(Cl)c(O)c2n1"
  Unit tag: "µg/mL"
  Measured result: 0.06
- Compound: "CCCCc1oc2ccc(NS(C)(=O)=O)cc2c1C(=O)c1ccc(OCCCN(CCCC)CCCC)cc1"
  Unit tag: "µg/mL"
  Measured result: 2
- Compound: "COC(=O)N/N=C/c1c[n+]([O-])c2ccccc2[n+]1[O-]"
  Unit tag: "µg/mL"
  Measured result: 1

Missing value: MIC, C. difficile clinical isolates, entry N=C(N/N=C/c1ccc(Cl)cc1)N/N=C/c1ccc(Cl)cc1 [Robenidine hydrochloride] . Fill in? 1

* * *

Would you kindly list MIC for each of these molecules?
System: C. difficile clinical isolates
Experiment summary: MIC against a panel of 20 C. difficile clinical isolates (broth microdilution)
Format: cell-based, Clostridioides difficile
Study conditions: Clostridioides difficile, ATCC630, C. difficile ATCC 630; read-out: minimum inhibitory concentration (MIC)
Where a name gives a salt, the structure may show the parent alone.
One number for each entry, in µg/mL.

- Molecule: "Cc1ccc2c(Cl)cc(Cl)c(O)c2n1 [Chlorquinaldol]"
  Unit tag: "µg/mL"
  Measured result: 0.25

Hi team, please reply with MIC for each item in this list.
1. N=C(N/N=C/c1ccc(Cl)cc1)N/N=C/c1ccc(Cl)cc1 [Robenidine hydrochloride]
2. CCCCc1oc2ccc(NS(C)(=O)=O)cc2c1C(=O)c1ccc(OCCCN(CCCC)CCCC)cc1 [Dronedarone]

1
4

* * *

Please provide measured MIC for the entries that follow.
Test system: Bif. angulatum
Experiment summary: MIC against human gut microbiota
Assay type: cell-based, Bifidobacterium angulatum
Study conditions: Bifidobacterium angulatum; Bif. angulatum HM- 1189, BHIS broth, anaerobic; read-out: minimum inhibitory concentration (MIC)
One number for each entry, in µg/mL.

Reference set, count: 3
- Molecule: "Oc1c(Br)cc(Br)c2cccnc12 [Broxyquinoline]"
  Unit tag: "µg/mL"
  MIC: 8
- Molecule: "CCCCc1oc2ccc(NS(C)(=O)=O)cc2c1C(=O)c1ccc(OCCCN(CCCC)CCCC)cc1 [Dronedarone]"
  Unit tag: "µg/mL"
  MIC: 8
- Molecule: "Cc1ccc2c(Cl)cc(Cl)c(O)c2n1 [Chlorquinaldol]"
  Unit tag: "µg/mL"
  MIC: 32

Now consider the entry below.
Which MIC is reported for this molecule? COC(=O)N/N=C/c1c[n+]([O-])c2ccccc2[n+]1[O-] [Carbadox] 4
